biological target: CREB-binding protein (Homo sapiens, UniProt Q92793); test: Displacement of biotinylated p53-AcK382 from GST-tagged CREBBP (1082 to 1197 amino acid residues) (unknown origin) expressed in Escherichia coli BL21(DE3) cells by tryptophan fluorescence assay
Sequence (Q92793 whole entry, the tested form may be a part): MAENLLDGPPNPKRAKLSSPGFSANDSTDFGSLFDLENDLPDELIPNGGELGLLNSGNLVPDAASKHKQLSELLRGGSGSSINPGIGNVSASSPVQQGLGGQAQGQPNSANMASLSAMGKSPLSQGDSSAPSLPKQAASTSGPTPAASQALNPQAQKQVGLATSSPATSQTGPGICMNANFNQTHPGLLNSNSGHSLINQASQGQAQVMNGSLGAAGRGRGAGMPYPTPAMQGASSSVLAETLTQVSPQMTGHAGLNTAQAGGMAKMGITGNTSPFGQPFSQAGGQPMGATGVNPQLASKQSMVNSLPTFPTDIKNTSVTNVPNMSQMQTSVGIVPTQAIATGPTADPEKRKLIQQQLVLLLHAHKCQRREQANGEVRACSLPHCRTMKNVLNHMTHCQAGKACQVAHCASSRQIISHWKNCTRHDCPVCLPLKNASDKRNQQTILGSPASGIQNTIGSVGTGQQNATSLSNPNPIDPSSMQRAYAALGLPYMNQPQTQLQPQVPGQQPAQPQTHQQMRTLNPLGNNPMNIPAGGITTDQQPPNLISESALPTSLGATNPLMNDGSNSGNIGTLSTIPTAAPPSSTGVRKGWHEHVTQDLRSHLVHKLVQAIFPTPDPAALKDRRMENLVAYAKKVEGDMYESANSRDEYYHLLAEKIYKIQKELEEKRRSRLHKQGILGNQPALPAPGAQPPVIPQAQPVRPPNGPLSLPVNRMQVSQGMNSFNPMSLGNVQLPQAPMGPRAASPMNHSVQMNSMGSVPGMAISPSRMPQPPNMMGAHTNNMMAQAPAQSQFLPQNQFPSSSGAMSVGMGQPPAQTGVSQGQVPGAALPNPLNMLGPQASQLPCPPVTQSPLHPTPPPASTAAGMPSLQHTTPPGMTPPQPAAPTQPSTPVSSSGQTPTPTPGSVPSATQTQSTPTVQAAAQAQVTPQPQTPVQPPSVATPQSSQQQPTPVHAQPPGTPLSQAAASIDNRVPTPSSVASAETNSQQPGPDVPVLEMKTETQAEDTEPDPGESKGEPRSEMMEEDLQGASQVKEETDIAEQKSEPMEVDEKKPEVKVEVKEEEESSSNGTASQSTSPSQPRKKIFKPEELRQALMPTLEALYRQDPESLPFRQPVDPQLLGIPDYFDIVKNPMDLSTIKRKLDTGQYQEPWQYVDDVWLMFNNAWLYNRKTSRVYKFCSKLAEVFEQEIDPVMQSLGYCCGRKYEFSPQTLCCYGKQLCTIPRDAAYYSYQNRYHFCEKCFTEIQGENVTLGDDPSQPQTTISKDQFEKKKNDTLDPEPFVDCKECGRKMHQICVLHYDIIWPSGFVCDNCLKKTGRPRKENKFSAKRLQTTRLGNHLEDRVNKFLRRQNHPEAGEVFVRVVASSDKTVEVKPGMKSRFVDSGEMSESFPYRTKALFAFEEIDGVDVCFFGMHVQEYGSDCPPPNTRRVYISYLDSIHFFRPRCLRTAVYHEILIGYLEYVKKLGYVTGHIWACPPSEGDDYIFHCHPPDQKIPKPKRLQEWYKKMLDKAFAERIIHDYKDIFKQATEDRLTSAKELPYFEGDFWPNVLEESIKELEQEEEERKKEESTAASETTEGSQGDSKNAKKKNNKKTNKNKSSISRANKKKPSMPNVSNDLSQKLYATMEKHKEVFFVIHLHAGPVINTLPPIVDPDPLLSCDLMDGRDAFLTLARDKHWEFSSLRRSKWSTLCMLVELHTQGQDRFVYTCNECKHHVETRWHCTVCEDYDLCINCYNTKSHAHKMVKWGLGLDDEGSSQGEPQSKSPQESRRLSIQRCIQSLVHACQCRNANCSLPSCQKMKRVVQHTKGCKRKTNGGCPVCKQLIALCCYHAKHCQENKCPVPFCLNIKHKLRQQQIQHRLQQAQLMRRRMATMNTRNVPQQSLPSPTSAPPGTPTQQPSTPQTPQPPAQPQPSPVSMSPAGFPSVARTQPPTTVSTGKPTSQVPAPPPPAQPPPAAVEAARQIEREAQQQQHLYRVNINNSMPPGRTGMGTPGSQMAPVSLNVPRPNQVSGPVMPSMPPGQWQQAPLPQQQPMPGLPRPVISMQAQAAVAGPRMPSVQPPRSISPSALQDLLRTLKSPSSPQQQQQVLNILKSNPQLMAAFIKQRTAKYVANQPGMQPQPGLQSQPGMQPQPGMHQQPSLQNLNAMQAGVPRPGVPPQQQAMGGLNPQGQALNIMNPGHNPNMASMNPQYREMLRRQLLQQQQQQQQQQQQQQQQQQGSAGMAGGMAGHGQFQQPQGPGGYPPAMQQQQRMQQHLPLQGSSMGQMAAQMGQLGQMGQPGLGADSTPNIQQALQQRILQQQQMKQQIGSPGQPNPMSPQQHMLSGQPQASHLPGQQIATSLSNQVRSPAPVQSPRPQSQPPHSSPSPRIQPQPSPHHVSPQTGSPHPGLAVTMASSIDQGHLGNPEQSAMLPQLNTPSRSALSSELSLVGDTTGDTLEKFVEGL
pKd: −log10 of the molar value.

# compound, pKd
rows = [
    ("CC(=O)n1c2c(c3ccccc31)CCCC2=O", 4.70),
]

* * *

target: Bromodomain-containing protein 4 (Homo sapiens, UniProt O60885); test: Displacement of HYSGRGKacGGKacGLGKacGGAKacRHRK(Biotin)-OH from human BRD4 by alpha screen assay

# compound, IC50, µM
data = [
    ("Cc1noc(C)c1-c1ccc2nc[nH]c2c1", 6),
]

Cited source for all entries: ChEMBL document CHEMBL3751772
